Target System: α2-adrenoceptors
Construct: pKi α2; other: rat neocortical membranes, 1 nM 3H-RX821002, 30 min at 25° C., at least three independent experiments
Protocol Summary: Binding assay, displacement of 1 nM 3H-RX821002 in rat neocortical membranes
Test Parameters: rat neocortical membranes, 1 nM 3H-RX821002, 30 min at 25° C., at least three independent experiments
Quick rule: pKi α2 of at least 8 means true (1), below that means false (0).

| Molecule | Class Assignment |
| --- | --- |
| Cc1cccc2c1CCC2c1c[nH]cn1.Cl (centres unmarked) [Compound 1] | true (1) |
| Cl.Oc1ccc2c(c1)C(Cc1c[nH]cn1)CCC2 (centres unmarked) [Compound 4] | false (0) |
| CC(c1c[nH]cn1)C1CCc2ccccc21.Cl (centres unmarked) [Compound 3] | true (1) |
| Cc1cccc([C@H](C)c2cnc[nH]2)c1C [Compound 5, dexmedetomidine, reference compound] | true (1) |

State whether the measured pKi α2 reaches 8, counting equality as reaching it, for Cl.Oc1ccc2c(c1)C(Cc1c[nH]cn1)CC2 (centres unmarked) [Compound 2] true (1)

---

System: α2-adrenoceptors
Protocol Summary: Binding assay, displacement of 1 nM 3H-RX821002 in rat neocortical membranes
Test Parameters: ratio of affinities on rat neocortical α2- vs α1-adrenoceptors
# note: exactly 10 is not below, so it is 0.0; use 1.0 for alpha2 vs alpha1 selectivity strictly under it

| Compound | Class Assignment |
| --- | --- |
| Cl.Oc1ccc2c(c1)C(Cc1c[nH]cn1)CC2 (centres unmarked) [Compound 2] | 0.0 |
| CC(c1c[nH]cn1)C1CCc2ccccc21.Cl (centres unmarked) [Compound 3] | 0.0 |
| Cl.Oc1ccc2c(c1)C(Cc1c[nH]cn1)CCC2 (centres unmarked) [Compound 4] | 1.0 |
| Cc1cccc2c1CCC2c1c[nH]cn1.Cl (centres unmarked) [Compound 1] | 0.0 |

Please turn your attention to the following entry.
# strict comparison: is reported alpha2 vs alpha1 selectivity < 10? input = Cc1cccc([C@H](C)c2cnc[nH]2)c1C [Compound 5, dexmedetomidine, reference compound] 0.0
